Reported values of IC50 for individual entries
Target: STAT3 (Homo sapiens)
Construct: endogenous in cells; host or cells: K-562 and MCF-7 cells (nuclear extracts)
Sequence (P40763 whole entry): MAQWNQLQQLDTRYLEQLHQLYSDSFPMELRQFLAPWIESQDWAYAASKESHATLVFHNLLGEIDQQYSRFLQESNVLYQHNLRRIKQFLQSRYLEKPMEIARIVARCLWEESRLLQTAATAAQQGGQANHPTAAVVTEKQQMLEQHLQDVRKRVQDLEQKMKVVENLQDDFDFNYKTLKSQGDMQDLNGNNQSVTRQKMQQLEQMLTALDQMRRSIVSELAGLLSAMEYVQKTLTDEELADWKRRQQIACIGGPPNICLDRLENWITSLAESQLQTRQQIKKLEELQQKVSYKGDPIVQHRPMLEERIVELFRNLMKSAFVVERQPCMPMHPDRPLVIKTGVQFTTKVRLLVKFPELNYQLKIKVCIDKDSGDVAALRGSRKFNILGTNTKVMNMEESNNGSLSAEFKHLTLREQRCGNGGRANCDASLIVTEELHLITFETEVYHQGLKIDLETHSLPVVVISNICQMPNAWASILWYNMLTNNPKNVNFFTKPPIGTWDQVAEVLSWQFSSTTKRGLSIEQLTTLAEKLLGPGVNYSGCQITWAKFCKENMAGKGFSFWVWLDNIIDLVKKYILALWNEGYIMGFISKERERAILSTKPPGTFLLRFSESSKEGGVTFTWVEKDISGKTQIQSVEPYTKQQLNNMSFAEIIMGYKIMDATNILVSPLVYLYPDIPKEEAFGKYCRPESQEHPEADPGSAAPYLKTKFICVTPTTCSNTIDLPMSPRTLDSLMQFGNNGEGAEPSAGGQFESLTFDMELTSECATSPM
Protocol Notes: TransAM STAT3 activation assay on nuclear extracts of treated cells
Type: cell-based
Condition Context: K562 cells, 24 h, read-out: Inhibition IC50 (µM) STAT3
Reported Property: IC50 (µM)

Compound: COc1ccc(/C=C/C(=O)c2ccc(NC(=O)CSc3nc(-c4ccc(Cl)cc4)cc(-c4ccc([N+](=O)[O-])cc4)n3)cc2)cc1OC [Compound 9n]
Target: STAT3 (Homo sapiens)
Units Symbol: µM
Val: 113

Compound: C1=C/COCc2cc(ccc2OCCN2CCCC2)Nc2nccc(n2)-c2cccc(c2)COC/1 [Pacritinib, reference compound]
Target: STAT3 (Homo sapiens)
Units Symbol: µM
Val: 65.5

Compound: COc1ccc(/C=C/C(=O)c2ccc(NC(=O)CSc3nc(-c4ccc(OC)cc4)cc(-c4ccc([N+](=O)[O-])cc4)n3)cc2)cc1 [Compound 9d]
Target: STAT3 (Homo sapiens)
Units Symbol: µM
Val: 160

Compound: COc1ccc(-c2cc(-c3ccc([N+](=O)[O-])cc3)nc(SCC(=O)Nc3ccc(C(=O)/C=C/c4cc(OC)c(OC)c(OC)c4)cc3)n2)cc1 [Compound 9f]
Target: STAT3 (Homo sapiens)
Units Symbol: µM
Val: 245
